# assayOverview: modulators of CIT2-GFP expression in yeast, confirmation, S. cerevisiae, GFP fusion, cherry picks, mother/daughter gates (AID 2274)
# conditionSet: S. cerevisiae CIT2-GFP strain, flow cytometry, 3 h; measured here: mother cell gate; at 10 µM; stronger effect = higher value

| smilesRecord | GFP response, % of DMSO, % |
| --- | --- |
| Cc1cccn2c(=O)c3cc(C(=O)NCCc4ccccc4)c(=N)n(CCCn4ccnc4)c3nc12 | 97.1 |
| O=C(/C=C/c1cc(Br)ccc1O)c1ccco1 | 91 |
| CCOC(=O)C1=C(Cc2ccc(Cl)cc2)C(=O)c2ccccc2C1=O | 94.5 |
| O=C(Nc1ccccc1O)c1ccccc1O | 100 |

###

# assayOverview: modulators of CIT2-GFP expression in yeast, confirmation, S. cerevisiae, GFP fusion, cherry picks, mother/daughter gates (AID 2274)
# conditionSet: S. cerevisiae CIT2-GFP strain, flow cytometry, 3 h; at 10 µM; stronger effect = higher value
Below, each entry is listed with its recorded GFP response, % of DMSO.
testReadout: GFP response, % of DMSO (%)

| molecule | reportedValue |
| --- | --- |
| COC(=O)Nc1c(-c2ccccc2)nc2ccccn12 | 101 |
| O=c1[nH]c(CCl)nc2cc(-c3ccc(Cl)cc3)sc12 | 93 |
| O=C(OCC(=O)N1CCN(C(=O)c2ccco2)CC1)c1cc(-c2cccc(Br)c2)nc2ccccc12 | 128 |
| CC(=O)SC(C[N+](=O)[O-])c1cn(C(C)=O)c2ccccc12 (stereo unspecified) | 94.4 |
| O=C(O)c1ccc2ccc3ccccc3c2c1 | 122 |
| CCOC(=O)c1ccc(NC(=O)CCc2nc(-c3ccccc3Cl)no2)cc1 | 101 |
| Cc1cc(C)c(S(C)(=O)=O)c(S(=O)(=O)c2ccc(Cl)cc2)n1 | 103 |
| O=C(OCC(=O)N1CCN(C(=O)c2ccco2)CC1)c1cc(-c2ccc(F)cc2)nc2ccccc12 | 135 |
| COc1cc(NC(=O)c2ccccc2[N+](=O)[O-])ccc1NC(=O)c1cc2ccccc2o1 | 97.3 |
| COC(=O)Nc1c(-c2ccccc2)nc2ccc(C)cn12 | 104 |
| Cc1[nH]n(-c2ccccc2)c(=O)c1/C=N/Nc1nncc(-c2ccccc2)n1 | 86 |

###

# assayOverview: modulators of CIT2-GFP expression in yeast, confirmation, S. cerevisiae, GFP fusion, cherry picks, mother/daughter gates (AID 2274)
# conditionSet: S. cerevisiae CIT2-GFP strain, flow cytometry, 3 h; measured here: mother cell gate; at 10 µM; stronger effect = higher value

| smilesRecord | GFP response, % of DMSO (%) |
| --- | --- |
| CCOc1ccc(Nc2ccc(C(=O)O)cc2[N+](=O)[O-])cc1 | 96.8 |
| Cc1ccc(-c2csc(NC(=O)c3ccno3)n2)cc1 | 99.3 |
| COc1ccc(OC)c(C(=O)/C=C/c2ccccc2C(F)(F)F)c1 | 94.7 |
| O=C(Nc1ccccc1C(=O)O)c1ccccc1 | 98 |
| CCOc1ccc(-c2noc(-c3ccncc3)n2)cc1OCC | 99.3 |

###

# Tested on: anti-desmoglein-3 scFv antibody binding to human DSG3
# assayOverview: inhibitors of anti-DSG3 scFv binding to DSG3, pilot screen, biochemical, validation compound set, bead-based, flow cytometry (AID 588368);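 also: signal is the median channel fluorescence of bead-bound GFP antibody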
# conditionSet: Protein G beads, DSG3-Fc, scFv-GFP binding, at 10 µM, stronger effect = lower value

| compound | binding (% of control) / % |
| --- | --- |
| Cn1nc(-c2ccccn2)nc2c(=O)n(C)c(=O)nc1-2 | 94.9 |
| CCCCOc1ccc(OCCCN2CCOCC2)cc1 | 106 |
| CN(C)CCN(Cc1cccs1)c1ccccn1 | 101 |
| CN(Cc1ccccc1)CC(O)COc1ccc(CNCc2cccnc2)cc1 (stereo not given) | 105 |
| NC12CC3CC(CC(C3)C1)C2 | 102 |
| Cc1cc(C)c2c(CCl)cc(=O)oc2c1 | 96.2 |
| Cn1c(=O)c2c(ncn2Cc2ccccc2)n(C)c1=O | 104 |
| CCCCNC(=O)NS(=O)(=O)c1ccc(C)cc1 | 99 |
| CC(=O)O[C@]1(C(C)=O)CC[C@H]2[C@@H]3C=C(Cl)C4=CC(=O)CC[C@]4(C)[C@H]3CC[C@@]21C | 105 |
| COc1cc(/C=C(\C#N)C(=O)N2CCc3ccccc32)ccc1O | 105 |
| CN(C)CCCNc1ncnc2c1cnn2-c1ccccc1 | 97 |
| CCn1c(O)c(/C=C2\C=Nc3ccccc32)sc1=O | 97.5 |
| CC(=O)CCc1oc2ccccc2c1-c1ccccc1 | 108 |
| O=C(Cc1ccc(Br)cc1)c1ccc(O)cc1O | 105 |
| COc1cc2ccc(=O)oc2c(O)c1OCC=C(C)C | 98.2 |
| CC(=O)Oc1ccc2occ(/C=N/c3cc(=O)[nH]c(=S)[nH]3)c(=O)c2c1 | 103 |
| CCSc1nc(O)c(C2OC(=O)c3c2ccc(OC)c3OC)c(=O)n1CC (stereo not given) | 101 |
| Cc1c(CCOC(=O)CC23CC4CC(CC(C)(C4)C2)C3)sc[n+]1Cc1ccc([N+](=O)[O-])cc1 | 108 |
| COc1ccc(CC(=O)N2CC3(C)CC2CC(C)(C)C3)cc1OC (stereo not given) | 102 |
| Cn1c2[n+](c3ccc(Cl)cc3c1=O)Cc1ccccc1-2 | 107 |
| COc1cc(NC(=O)N[C@@H](Cc2ccccc2)C(=O)O)cc(OC)c1 | 105 |
| Nc1cccc2nc3ccccc3cc12 | 102 |
| COCc1cc(=O)[nH]c(Nc2nc3ccccc3o2)n1 | 108 |
| CCN(CC)CCNc1ccc(CO)c2sc3ccccc3c(=O)c12 | 120 |
| CC12CCC(C(=O)Nc3ccccc3Br)(C/C1=N\O)C2(C)C (stereo not given) | 96 |
| CCc1c(C)c2ccc(OCC(=O)OC(C)C)c(C)c2oc1=O | 101 |
| C[C@H]1O[C@H]1P(=O)(O)O | 103 |
| O=C(Nc1cccc(-c2nc3ncccc3o2)c1)c1ccccc1 | 102 |
| CC(=O)OCC(OC(C)=O)C(OC(C)=O)C(OC(C)=O)C(=O)Nc1cccc(C)c1 (stereo not given) | 97 |
| NCCOc1ccccc1OCCN | 109 |
| COc1ccc(-c2cc3cc(OC)c(OC)cc3c(C)n2)cc1 | 106 |
| C[C@]12CCC(=O)C=C1CC[C@@H]1[C@@H]2C(=O)C[C@@]2(C)[C@H]1CC[C@]2(O)C(=O)CO | 101 |
| O=c1n(CCCN2CCN(c3cccc(Cl)c3)CC2)nc2ccccn12 | 102 |
| COc1cccc(N2CC34C=CC(O3)C(C(=O)O)C4C2=O)c1 (stereo not given) | 102 |
| N=c1ccn(CC(=O)NC(N)=O)c2ccccc12 | 95.7 |

###

Overview of recorded superoxide response (% of plate) for various compounds
# assayOverview: superoxide lowering in aged yeast cells, pilot screen, validation compound set (AID 2706);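 also: yeast exposed to compound for one week at 30 degrees C before staining; 100% = mean of all compound wells on the same plate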
# conditionSet: S. cerevisiae aging, superoxide DHE fluorescence; at 10 µM, stronger effect = lower value
testReadout: superoxide response (% of plate) (%)

| compound | reportedValue |
| --- | --- |
| COc1cc2c(cc1OC)C1(CCCCC1)CN(C)C2 | 103 |
| C(=C/c1nccc2c1[nH]c1ccccc12)/c1ccc2c(c1)OCO2 | 93.4 |
| C[C@]12CC[C@H]3C(=CCc4cc(O)ccc43)[C@@H]1CCC2=O | 102 |
| COc1ccc2c(c1)CC[C@@H]1[C@@H]2CC[C@]2(C)C(=O)CC[C@@H]12 | 98.6 |
| Fc1cccc(Cc2noc(CN3CCN(c4cnccn4)CC3)n2)c1 | 108 |
| CCc1ccc(/C=C2\SC(=S)N(CCC(=O)N3CCN(C)CC3)C2=O)cc1 | 90.8 |
| CC[N+](C)(CC)CCOC(=O)C(O)(c1ccccc1)C1CCCCC1 (stereo not given) | 102 |
| COc1ccc(CCNC(=O)c2c(O)c3c([nH]c2=O)CCCC3)cc1 | 124 |
| Nc1ccc2[nH]ncc2c1 | 110 |
| Cc1ccc2c(c1)C(O)(c1c(C)[nH]c3ccccc13)C(=O)N2 (stereo not given) | 98.1 |
| CC(C)CC(=O)OC1C(N2CCOCC2)c2c(ccc(/C=C/C(=O)N3CCOCC3)c2O)OC1(C)C (stereo not given) | 101 |
| O=C1N=c2ccccc2=C1c1[nH]c(=S)[nH]c1O | 98.7 |
| Cn1c2c(c(=O)[nH]c1=O)C(c1ccc(O)cc1)C1=C(N2)c2ccccc2C1=O (stereo not given) | 92.2 |
| COc1ccc(-c2cc(=O)oc3c(C)c(O)c(CN(C)C)cc23)cc1 | 96.8 |
| COc1ccc(CCN(C)CCCC(C#N)(c2ccc(OC)c(OC)c2)C(C)C)cc1OC (stereo not given) | 101 |
